# Tested on: Malme-3M
# Procedure text: NCI tumour cell line growth inhibition, 48 h
Active and inactive are the calls of the source. Rule as the data show it: active = GI50 up to about 1.1 µM and inactive = higher.
Observation type: GI50

Would you please look over these solved cases?
Ask | Need GI50 of `O[C@H]1[C@H]2[C@H](O)C[C@H](CCOCc3ccccc3)CN2C[C@H]1O` , thanks.
Reply | > 100 µM (inactive)

Ask | Need GI50 of c1ccc(C(CCN2CCCC2)c2ccccn2)cc1 (stereo not given) , thanks.
Reply | > 100 µM (inactive)

Ask | Need GI50 of C[C@]12CCC(=O)C=C1CC[C@@H]1C2CC[C@]2(C)Nc3c(cnn3-c3ccccc3)CC12 (stereo not given in full) , thanks.
Reply | > 100 µM (inactive)

Ask | Need GI50 of `O=C(O)Cc1ccc(-n2nnc3c(=O)[nH][nH]c(=O)c32)cc1` , thanks.
Reply | > 100 µM (inactive)

Ask | Need GI50 of `CNC(=O)Nc1ccccc1` , thanks.
Reply | > 100 µM (inactive)

Ask | Need GI50 of CC1=C2C3OC(=O)C(C)C3CCC2(C)C=C/C1=N\c1ccccc1 (stereo not given) , thanks.
Reply | > 100 µM (inactive)

Could I get GI50 for every one of these entries?
1. CC1(C)CCC[C@@]2(C)C1CC[C@@]1(CO)O[C@H](C3=CC(=O)OC3O)C[C@H]12 (stereo not given in full)
2. Nc1nc(CCC(=O)Nc2cccc(C(F)(F)F)c2)cc(-c2ccc3ccccc3c2)n1
3. C=C1CC2(CCS(=O)(=O)c3ccccc32)OC1=O (stereo not given)
4. Cc1cc(S(=O)(=O)Nc2nnc3cc(C(F)(F)F)cc(C)n23)c(S)cc1Cl
5. CCC1=C(C)/C(=C/c2[nH]c(C(Br)Br)c(CC)c2C)N=C1C(Br)Br
6. CN(CCO)Cc1ncccc1O
7. COC1(OC)CCC2C1C1CCC(OC)(OC)C21 (stereo not given)
8. COC1CC(OC(=O)c2ccccc2)C(OC(=O)c2ccccc2)C(C)O1 (stereo not given)

Reply |
1: 11 µM (inactive); 2: > 100 µM (inactive); 3: 12.4 µM (inactive); 4: > 100 µM (inactive); 5: 35 µM (inactive); 6: > 100 µM (inactive); 7: > 50 µM (inactive); 8: > 100 µM (inactive)

Ask | Need GI50 of CN1C(=O)CCC1c1ccc2c(c1)oc(=O)n2C (stereo not given) , thanks.
Reply | > 100 µM (inactive)
